SYSTEM_NAME: binding of His-XIAP(BIR2)-avi fusion protein to GST-RIPK2 fusion protein (RIPK2/XIAP) (Homo sapiens)
Construct: made in house; host or cells: baculovirus infected Sf9 cells
Sequence (O43353 1-310 limits assumed): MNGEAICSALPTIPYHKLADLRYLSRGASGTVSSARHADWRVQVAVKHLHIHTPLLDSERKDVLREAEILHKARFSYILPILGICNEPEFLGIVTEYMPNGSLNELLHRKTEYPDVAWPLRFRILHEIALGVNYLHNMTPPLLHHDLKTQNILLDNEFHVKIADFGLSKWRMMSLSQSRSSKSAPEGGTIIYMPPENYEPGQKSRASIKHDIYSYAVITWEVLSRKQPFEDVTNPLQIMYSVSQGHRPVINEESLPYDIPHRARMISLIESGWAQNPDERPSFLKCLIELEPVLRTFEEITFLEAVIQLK
TEST_PROTOCOL: RIPK2-XIAP binding competition PPI assay (TR-FRET)
TEST_PARAMETERS: RIPK2/XIAP binding competition PPI assay, Amax; read-out: PPI Amax bin
RESULT_TYPE: Emax

Illustrative cases are given below, each with its answer.
- COc1cc2ncc(-c3cc(F)c(OC)c4[nH]c(CO)nc34)n2cc1S(=O)(=O)C(C)(C)C: 55 to 80%
- OCCCNc1cc(-c2cnn3ccc(C(F)(F)F)cc23)cc(F)n1: < 30%
- [2H]C([2H])([2H])Oc1c(F)cc(-c2cnc3cc(OC)c(S(=O)(=O)C(C)(C)C)cn23)cc1NS(=O)(=O)CC1COC1: 55 to 80%
- COc1cc2ncc(-c3cc(C)c4nn(C)cc4c3)n2cc1S(=O)(=O)C(C)(C)C: < 30%
- COc1cc2ncc(-c3cccc(NS(=O)(=O)C4(C)CC4)c3)n2cc1S(=O)(=O)C(C)(C)C: > 80%
- CC(C)(C)S(=O)(=O)c1cn2c(-c3cnc4c(c3)C3(CC3)CN4)cnc2cc1OCCO: < 30%
- COc1cc2ncc(-c3cc(F)c(OC)c(NS(=O)(=O)c4cnc(C)o4)c3)n2cc1S(=O)(=O)C(C)(C)C: < 30%

Enquiry: Requested field: Emax. Item: `COc1cc2ncc(-c3cnc4c(c3)NCCO4)n2cc1S(=O)(=O)C(C)(C)C`
Return: < 30%
